# measuredTarget: rat VMAT2-His (Rattus norvegicus, UniProt Q01827)
# Construct: The ORF of rat VMAT2 was subcloned into a pFastBac vector; His; made in house; host or cells: Sf9 insect cells (baculovirus)
# Sequence (Q01827 whole entry): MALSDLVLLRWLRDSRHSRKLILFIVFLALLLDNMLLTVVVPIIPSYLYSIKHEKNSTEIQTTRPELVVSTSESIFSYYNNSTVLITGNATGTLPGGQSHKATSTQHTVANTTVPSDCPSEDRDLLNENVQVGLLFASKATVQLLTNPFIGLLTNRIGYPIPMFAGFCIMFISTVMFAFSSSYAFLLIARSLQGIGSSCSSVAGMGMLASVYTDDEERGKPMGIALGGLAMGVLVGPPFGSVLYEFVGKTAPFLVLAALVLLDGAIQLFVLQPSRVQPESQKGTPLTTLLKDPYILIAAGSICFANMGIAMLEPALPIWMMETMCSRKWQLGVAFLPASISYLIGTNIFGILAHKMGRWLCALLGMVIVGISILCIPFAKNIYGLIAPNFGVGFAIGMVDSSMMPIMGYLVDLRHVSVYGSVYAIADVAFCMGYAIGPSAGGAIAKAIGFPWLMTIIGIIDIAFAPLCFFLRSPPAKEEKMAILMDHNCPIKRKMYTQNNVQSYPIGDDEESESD
# procedureDetails: Differential scanning fluorimetry (DSF) with CPM dye: change of melting temperature of purified VMAT2
# Format: binding
# experimentalConditions: Table S2 dose response, compound 1,11 µM; read-out: ΔTm
Counter-ions that a name gives are not always drawn.
measuredMetric: ΔTm at 11 µM (°C)

molecule="CC(C)NCC(O)COc1ccc(CCOCC2CC2)cc1 (stereo not shown) [Betaxolol, Betaxolol hydrochloride]" readingunit=°C numericreadout=0.01
molecule="OCc1cc(C(O)CNCCCCCCOCCCCc2ccccc2)ccc1O (stereo not shown)" readingunit=°C numericreadout=6.55
molecule=CCCc1nn(C)c2c(=O)[nH]c(-c3cc(S(=O)(=O)N4CCN(C)CC4)ccc3OCC)nc12 readingunit=°C numericreadout=0.04
molecule="CC(C)(C)NC(=O)[C@@H]1C[C@@H]2CCCC[C@@H]2CN1C[C@@H](O)[C@H](Cc1ccccc1)NC(=O)[C@H](CC(N)=O)NC(=O)c1ccc2ccccc2n1 [Saquinavir mesylate]" readingunit=°C numericreadout=-0.49
molecule=Cc1cccc(C)c1NC(=O)CN1CCN(CCCC(c2ccc(F)cc2)c2ccc(F)cc2)CC1 readingunit=°C numericreadout=0.12
molecule="COc1cc2c(cc1OC)C1CC(=O)C(CC(C)C)CN1CC2 (stereo not shown)" readingunit=°C numericreadout=5.52
molecule="COc1ccc(CN2CCN(C(c3ccc(F)cc3)c3ccc(F)cc3)CC2)c(OC)c1OC [Lomerizine, Lomerizine hydrochloride]" readingunit=°C numericreadout=-1.46

###

Quick reference for ΔTm at 90 µM among some compounds
# measuredTarget: rat VMAT2-His (Rattus norvegicus)
# Construct: The ORF of rat VMAT2 was subcloned into a pFastBac vector; His; made in house; host or cells: Sf9 insect cells (baculovirus)
# procedureDetails: Differential scanning fluorimetry (DSF) with CPM dye: change of melting temperature of purified VMAT2
# Format: binding
# experimentalConditions: Table S2 dose response, compound 90 µM; read-out: ΔTm
Structures can show the parent of a compound that is named as a salt.
measuredMetric: ΔTm at 90 µM (°C)

compound="COc1ccc2[nH]c([S+]([O-])Cc3ncc(C)c(OC)c3C)nc2n1 (stereo not shown)" measuredmetric="ΔTm at 90 µM" numericreadout=6.56
compound="O=C(c1ccc(F)cc1)C1CCN(CCn2c(=O)[nH]c3ccccc3c2=O)CC1 [Ketanserin tartrate hydrate]" measuredmetric="ΔTm at 90 µM" numericreadout=0.95
compound="C1CCC(C(CC2CCCCN2)C2CCCCC2)CC1 (stereo not shown) [Perhexiline maleate]" measuredmetric="ΔTm at 90 µM" numericreadout=-1.17
compound="Fc1ccc(C(OCCN2CCN(CCCc3ccccc3)CC2)c2ccc(F)cc2)cc1 [GBR 12909 dihydrochloride]" measuredmetric="ΔTm at 90 µM" numericreadout=-2.3
compound="OCc1cc(C(O)CNCCCCCCOCCCCc2ccccc2)ccc1O (stereo not shown)" measuredmetric="ΔTm at 90 µM" numericreadout=8.7
compound="OC(c1cc(C(F)(F)F)nc2c(C(F)(F)F)cccc12)C1CCCCN1 (stereo not shown) [Mefloquine hydrochloride]" measuredmetric="ΔTm at 90 µM" numericreadout=0.09
compound="CC(C)NCC(O)COc1ccc(CCOCC2CC2)cc1 (stereo not shown) [Betaxolol, Betaxolol hydrochloride]" measuredmetric="ΔTm at 90 µM" numericreadout=0.2
